- Target Of Assay: acetylcholinesterase (AChE) (Rattus norvegicus, UniProt P37136)
- Sequence (P37136 32-614): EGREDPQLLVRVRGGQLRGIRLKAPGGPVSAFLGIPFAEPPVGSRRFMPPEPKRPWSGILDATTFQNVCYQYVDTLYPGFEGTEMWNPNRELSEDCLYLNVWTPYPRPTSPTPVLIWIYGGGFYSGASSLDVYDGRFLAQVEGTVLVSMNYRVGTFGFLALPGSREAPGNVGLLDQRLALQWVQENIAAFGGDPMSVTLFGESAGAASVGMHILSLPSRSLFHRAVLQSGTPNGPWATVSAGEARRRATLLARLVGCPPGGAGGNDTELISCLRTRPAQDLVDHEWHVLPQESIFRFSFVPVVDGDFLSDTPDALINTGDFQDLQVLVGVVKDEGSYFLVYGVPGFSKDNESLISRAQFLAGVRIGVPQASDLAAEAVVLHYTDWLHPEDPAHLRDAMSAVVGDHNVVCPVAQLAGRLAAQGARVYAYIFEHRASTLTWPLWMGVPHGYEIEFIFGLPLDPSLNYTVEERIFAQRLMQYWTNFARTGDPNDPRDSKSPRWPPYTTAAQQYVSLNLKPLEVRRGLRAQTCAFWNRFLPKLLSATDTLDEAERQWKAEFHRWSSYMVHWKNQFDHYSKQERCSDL
Field: pIC50. Provide a value for each of the compounds that follow.
Keep it numeric: pIC50 is minus log10 of the concentration in mol/L.

Prompt line: Query for acetylcholinesterase (AChE) (Rattus norvegicus, UniProt P37136): what pIC50 does the record show for O=c1ccc2c([nH]1)CCCC2NCCCCCCCCNc1c2c(nc3cc(Cl)ccc13)CCCC2 (stereo not shown) [Compound C] ?
Response line: 10.90

Prompt line: Query for acetylcholinesterase (AChE) (Rattus norvegicus, UniProt P37136): what pIC50 does the record show for O=c1ccc2c([nH]1)CCC(NCCCNc1c3c(nc4cc(Cl)ccc14)CCCC3)C2 (stereo not shown) [Compound A] ?
Response line: 9.60

Prompt line: Query for acetylcholinesterase (AChE) (Rattus norvegicus, UniProt P37136): what pIC50 does the record show for O=c1ccc2c([nH]1)CCCC2NCCCCCCCNc1c2c(nc3cc(Cl)ccc13)CCCC2 (stereo not shown) [Compound B] ?
Response line: 11.17

Prompt line: Query for acetylcholinesterase (AChE) (Rattus norvegicus, UniProt P37136): what pIC50 does the record show for O=c1ccc2c([nH]1)CCCC2NCCCCCCCCNc1c2c(nc3ccccc13)CCCC2 (stereo not shown) [Compound D] ?
Response line: 7.87

###

- Target Of Assay: acetylcholinesterase (AChE) (Rattus norvegicus, UniProt P37136)
- Construct: from tissue; host or cells: rat brain cortex
- Assay: In vitro inhibition of AChE (cholinesterase assay, Ellman method)
- Format: biochemical
- Condition: IC50 (BChE)/IC50 (AChE)
Measure Name: Selectivity AchE*

Prompt line: Look up Selectivity AchE* for this molecule: O=c1ccc2c([nH]1)CCCC2NCCCCCCCCNc1c2c(nc3ccccc13)CCCC2 (stereo not shown) [Compound D]
Response line: 31.52

Prompt line: Look up Selectivity AchE* for this molecule: O=c1ccc2c([nH]1)CCCC2NCCCCCCCCNc1c2c(nc3cc(Cl)ccc13)CCCC2 (stereo not shown) [Compound C]
Response line: 50317.32

Prompt line: Look up Selectivity AchE* for this molecule: O=c1ccc2c([nH]1)CCC(NCCCNc1c3c(nc4cc(Cl)ccc14)CCCC3)C2 (stereo not shown) [Compound A]
Response line: 227.23

Prompt line: Look up Selectivity AchE* for this molecule: O=c1ccc2c([nH]1)CCCC2NCCCCCCCNc1c2c(nc3cc(Cl)ccc13)CCCC2 (stereo not shown) [Compound B]
Response line: 4563
